# Test system: NCI-H23 lung
# test.protocol: NCI tumour cell line growth inhibition, 48 h
measured.metric: log10(TGI) (log10 of the value in µM)
In plain terms, each number is the log10 of measured TGI in µM.

INSERT INTO results (compound, reported_measurement) VALUES
  ('CCC1C(=O)OCc2c1cc1n(c2=O)Cc2cc3ccccc3nc2-1 (configuration not stated)', 1.03);

Fill in log10(TGI) for each of the 8 compounds listed.
1. CCN1/C(=C/C=C/c2n(-c3ccccc3)c3ccc(-c4nc5ccccc5s4)cc3[n+]2CC)N(c2ccccc2)c2ccc(-c3nc4ccccc4s3)cc21
2. c1ccc2c(c1)Nc1ccccc1[P+]21c2ccccc2Nc2ccccc21
3. O=C(Nc1ccc(F)cc1)Nc1ccccc1CNc1nc(Nc2ccc(OCCN3CCCC3)cc2)ncc1Cl
4. CCC[CH2][Sn]([CH2]CCC)([O]C(=O)c1cc(F)ccc1F)[O][Sn]([CH2]CCC)([CH2]CCC)[O]C(=O)c1cc(F)ccc1F
5. CSc1cccc(-n2c3nc(=O)n(C)c(=O)c-3nc3ccccc32)c1
6. Cc1ccccc1C1=[N+]([O-])c2ccccc2C1=O
7. CC(=O)Nc1ccc(N=C2C(c3ccccc3)=C(SC3=C(c4ccccc4)C(=Nc4ccc(NC(C)=O)cc4)c4ccccc43)c3ccccc32)cc1
8. NC(=O)C#CC#CC#CCO

[reply]
[0.71, -0.08, 1.12, -0.51, 1.85, 1.55, 2.00, 0.59]

Give log10(TGI) for all compounds that follow.
1. COc1cc2c(cc1OCCCCCOc1cc3c(cc1OC)C(=O)N1CC(F)C[C@H]1C=N3)N=C[C@@H]1CC(F)CN1C2=O (some centres not stated)
2. N#CC(c1nc2ccccc2s1)c1ncnc(Cl)c1[N+](=O)[O-] (configuration not stated)
3. COc1cc2c(cc1O)-c1c(cnn1-c1ccc([N+](=O)[O-])cc1)CCC2

[reply]
[-0.40, 1.51, 1.62]

Dear colleague, could you please provide log10(TGI) for the compounds listed below?
1. CN(CCCCCl)P(=O)(OCc1ccc([N+](=O)[O-])o1)OCC1OC(n2ccc(N)nc2=O)C(F)(F)C1O (configuration not stated)
2. S=C(N/N=C(/c1ccccc1)c1ccccn1)N1CCCCC1
3. COC(=O)C1=C(C)NC(C)=C(C(=O)OC)C1/C=C(\Cl)c1ccc(Cl)c(Cl)c1

[reply]
1: 0.18; 2: 0.24; 3: 1.49

These data points were gathered from PubChem BioAssay (NCI).
